tested on: SW 900; assay: relative viability (nuclei count vs DMSO), 5 days (fraction); higher = more cells survive; conditions: first compound 1 µM
recorded endpoint: relative viability
Just the number, please.

Data request: Fill in: relative viability of O=c1cc(N2CCOCC2)oc2c(-c3cccc4c3sc3ccccc34)cccc12 + O=C(c1cc(Cc2n[nH]c(=O)c3ccccc23)ccc1F)N1CCN(C(=O)C2CC2)CC1 [Olaparib] (partner 8 µM) is ___
Data returned: 0.572

Data request: Quick one: relative viability for O=c1cc(N2CCOCC2)oc2c(-c3cccc4c3sc3ccccc34)cccc12 + CCNC(=O)c1noc(-c2cc(C(C)C)c(O)cc2O)c1-c1ccc(CN2CCOCC2)cc1 [Luminespib] (partner 0.01 µM) ?
Data returned: 0.176

Data request: I'd like to know its relative viability. The compound in question is O=c1cc(N2CCOCC2)oc2c(-c3cccc4c3sc3ccccc34)cccc12 + COc1cccc2cc(-c3nc([C@H]4CC[C@H](C(=O)O)CC4)n4ncnc(N)c34)[nH]c12 [OSI-027] (partner 0.5 µM)
Data returned: 0.545

Data request: Reported relative viability, compound O=c1cc(N2CCOCC2)oc2c(-c3cccc4c3sc3ccccc34)cccc12 + CC(=O)c1c(C)c2cnc(Nc3ccc(N4CCNCC4)cn3)nc2n(C2CCCC2)c1=O [Palbociclib] (partner 0.5 µM) : ____
Data returned: 0.517

Data request: # relative viability lookup, item O=c1cc(N2CCOCC2)oc2c(-c3cccc4c3sc3ccccc34)cccc12 + Nc1ncn([C@H]2C[C@H](O)[C@@H](CO)O2)c(=O)n1 [Decitabine] (partner 2 µM)
Data returned: 0.456
